Recorded values, source patent US20250197408A1.

Assay: Solubility in 7 aqueous pH buffers and bio-relevant fluids at 37° C. (HPLC of supernatant; residual solids by XRPD)
Assay type: physicochemical
Conditions: ES4, pH 7.4 phosphate buffer (50 mM), 37° C., 24 h
Metric: pH of supernatant, solubility for 24 h (pH)

| Compound | Observed Measurement |
| --- | --- |
| C=CC(=O)NCC(=O)N1CCN(Cc2cc3c(N4CCOCC4)nc(-c4cnc(NC(=O)OC)cc4C(F)(F)F)nn3c2)CC1.O=P(O)(O)O [Form A* of Compound I phosphate salt] | (7.1) |
| C=CC(=O)NCC(=O)N1CCN(Cc2cc3c(N4CCOCC4)nc(-c4cnc(NC(=O)OC)cc4C(F)(F)F)nn3c2)CC1.O=C(O)/C=C\C(=O)O [Form B* of Compound I maleate salt] | (7.3) |
| C=CC(=O)NCC(=O)N1CCN(Cc2cc3c(N4CCOCC4)nc(-c4cnc(NC(=O)OC)cc4C(F)(F)F)nn3c2)CC1 [Form A of Compound I] | (7.4) |
| C=CC(=O)NCC(=O)N1CCN(Cc2cc3c(N4CCOCC4)nc(-c4cnc(NC(=O)OC)cc4C(F)(F)F)nn3c2)CC1.O=S(=O)(O)c1ccccc1 | (7.3) |

---

Experiment: Solubility in 7 aqueous pH buffers and bio-relevant fluids at 37° C. (HPLC of supernatant; residual solids by XRPD)
Assay type: physicochemical
Settings: aqueous buffer, thermodynamic from solid; ES2, pH 4.5 acetate buffer (50 mM), 37° C., 2 h
Metric: solubility at 2 h

// query I'd like to know its solubility at 2 h. The compound in question is C=CC(=O)NCC(=O)N1CCN(Cc2cc3c(N4CCOCC4)nc(-c4cnc(NC(=O)OC)cc4C(F)(F)F)nn3c2)CC1 [Form A of Compound I]
// result 200 µg/mL

---

Test: Solubility in 7 aqueous pH buffers and bio-relevant fluids at 37° C. (HPLC of supernatant; residual solids by XRPD)
Assay type: physicochemical
Details: simulated gastric fluid, thermodynamic from solid; ES5, SGF, pH 2.0, 37° C., 2 h
Metric: solubility at 2 h

// query Recorded solubility at 2 h for C=CC(=O)NCC(=O)N1CCN(Cc2cc3c(N4CCOCC4)nc(-c4cnc(NC(=O)OC)cc4C(F)(F)F)nn3c2)CC1 [Form A of Compound I] , please?
// result > 2000 µg/mL

---

Assay: Solubility in 7 aqueous pH buffers and bio-relevant fluids at 37° C. (HPLC of supernatant; residual solids by XRPD)
Assay type: physicochemical
Details: ES1, pH 1.2 HCl solution (0.1N), 37° C., 2 h
Metric: pH of supernatant, solubility for 2 h (pH)

| Molecule | Observed Measurement |
| --- | --- |
| C=CC(=O)NCC(=O)N1CCN(Cc2cc3c(N4CCOCC4)nc(-c4cnc(NC(=O)OC)cc4C(F)(F)F)nn3c2)CC1.O=S(=O)(O)c1ccccc1 | (1.2) |
| C=CC(=O)NCC(=O)N1CCN(Cc2cc3c(N4CCOCC4)nc(-c4cnc(NC(=O)OC)cc4C(F)(F)F)nn3c2)CC1 [Form A of Compound I] | (1.2) |
| C=CC(=O)NCC(=O)N1CCN(Cc2cc3c(N4CCOCC4)nc(-c4cnc(NC(=O)OC)cc4C(F)(F)F)nn3c2)CC1.O=C(O)/C=C\C(=O)O [Form B* of Compound I maleate salt] | (1.3) |
| C=CC(=O)NCC(=O)N1CCN(Cc2cc3c(N4CCOCC4)nc(-c4cnc(NC(=O)OC)cc4C(F)(F)F)nn3c2)CC1.O=P(O)(O)O [Form A* of Compound I phosphate salt] | (1.2) |

---

Test: Solubility in 7 aqueous pH buffers and bio-relevant fluids at 37° C. (HPLC of supernatant; residual solids by XRPD)
Type: physicochemical
Settings: simulated gastric fluid, thermodynamic from solid; ES5, SGF, pH 2.0, 37° C., 24 h
Metric: solubility at 24 h

// query solubility at 24 h value for entry C=CC(=O)NCC(=O)N1CCN(Cc2cc3c(N4CCOCC4)nc(-c4cnc(NC(=O)OC)cc4C(F)(F)F)nn3c2)CC1 [Form A of Compound I]
// result > 2000 µg/mL

---

Experiment: Solubility in 7 aqueous pH buffers and bio-relevant fluids at 37° C. (HPLC of supernatant; residual solids by XRPD)
Format: physicochemical
Conditions: aqueous buffer, thermodynamic from solid; ES2, pH 4.5 acetate buffer (50 mM), 37° C., 24 h
Metric: solubility at 24 h
Your reply should be a number followed by the unit it is expressed in.

// query # get_value(readout='solubility at 24 h', item= C=CC(=O)NCC(=O)N1CCN(Cc2cc3c(N4CCOCC4)nc(-c4cnc(NC(=O)OC)cc4C(F)(F)F)nn3c2)CC1 [Form A of Compound I] )
// result 300 µg/mL

---

Test: Solubility in 7 aqueous pH buffers and bio-relevant fluids at 37° C. (HPLC of supernatant; residual solids by XRPD)
Assay type: physicochemical
Details: ES2, pH 4.5 acetate buffer (50 mM), 37° C., 2 h
Metric: pH of supernatant, solubility for 2 h (pH)

| Molecule | Observed Measurement |
| --- | --- |
| C=CC(=O)NCC(=O)N1CCN(Cc2cc3c(N4CCOCC4)nc(-c4cnc(NC(=O)OC)cc4C(F)(F)F)nn3c2)CC1.O=C(O)/C=C\C(=O)O [Form B* of Compound I maleate salt] | (4.5) |
| C=CC(=O)NCC(=O)N1CCN(Cc2cc3c(N4CCOCC4)nc(-c4cnc(NC(=O)OC)cc4C(F)(F)F)nn3c2)CC1 [Form A of Compound I] | (4.5) |
| C=CC(=O)NCC(=O)N1CCN(Cc2cc3c(N4CCOCC4)nc(-c4cnc(NC(=O)OC)cc4C(F)(F)F)nn3c2)CC1.O=S(=O)(O)c1ccccc1 | (4.5) |
| C=CC(=O)NCC(=O)N1CCN(Cc2cc3c(N4CCOCC4)nc(-c4cnc(NC(=O)OC)cc4C(F)(F)F)nn3c2)CC1.O=P(O)(O)O [Form A* of Compound I phosphate salt] | (4.4) |

---

Assay: Solubility in 7 aqueous pH buffers and bio-relevant fluids at 37° C. (HPLC of supernatant; residual solids by XRPD)
Assay type: physicochemical
Conditions: ES1, pH 1.2 HCl solution (0.1N), 37° C., 24 h
Metric: pH of supernatant, solubility for 24 h (pH)

| Compound | Observed Measurement |
| --- | --- |
| C=CC(=O)NCC(=O)N1CCN(Cc2cc3c(N4CCOCC4)nc(-c4cnc(NC(=O)OC)cc4C(F)(F)F)nn3c2)CC1.O=S(=O)(O)c1ccccc1 | (1.0) |
| C=CC(=O)NCC(=O)N1CCN(Cc2cc3c(N4CCOCC4)nc(-c4cnc(NC(=O)OC)cc4C(F)(F)F)nn3c2)CC1.O=P(O)(O)O [Form A* of Compound I phosphate salt] | (1.0) |
| C=CC(=O)NCC(=O)N1CCN(Cc2cc3c(N4CCOCC4)nc(-c4cnc(NC(=O)OC)cc4C(F)(F)F)nn3c2)CC1 [Form A of Compound I] | (1.0) |
| C=CC(=O)NCC(=O)N1CCN(Cc2cc3c(N4CCOCC4)nc(-c4cnc(NC(=O)OC)cc4C(F)(F)F)nn3c2)CC1.O=C(O)/C=C\C(=O)O [Form B* of Compound I maleate salt] | (1.3) |

---

Experiment: Solubility in 7 aqueous pH buffers and bio-relevant fluids at 37° C. (HPLC of supernatant; residual solids by XRPD)
Type: physicochemical
Conditions: thermodynamic from solid; ES6, FaSSIF-v1, pH 6.5, 37° C., 2 h
Metric: solubility at 2 h (µg/mL)
Write the value in µg/mL as a bare number.

// query Look up solubility at 2 h for this molecule: C=CC(=O)NCC(=O)N1CCN(Cc2cc3c(N4CCOCC4)nc(-c4cnc(NC(=O)OC)cc4C(F)(F)F)nn3c2)CC1 [Form A of Compound I]
// result 9.4

---

Assay: Solubility in 7 aqueous pH buffers and bio-relevant fluids at 37° C. (HPLC of supernatant; residual solids by XRPD)
Assay type: physicochemical
Conditions: ES5, SGF, pH 2.0, 37° C., 24 h
Metric: pH of supernatant, solubility for 24 h (pH)

| Molecule | Observed Measurement |
| --- | --- |
| C=CC(=O)NCC(=O)N1CCN(Cc2cc3c(N4CCOCC4)nc(-c4cnc(NC(=O)OC)cc4C(F)(F)F)nn3c2)CC1.O=C(O)/C=C\C(=O)O [Form B* of Compound I maleate salt] | (2.0) |
| C=CC(=O)NCC(=O)N1CCN(Cc2cc3c(N4CCOCC4)nc(-c4cnc(NC(=O)OC)cc4C(F)(F)F)nn3c2)CC1.O=S(=O)(O)c1ccccc1 | (1.8) |
| C=CC(=O)NCC(=O)N1CCN(Cc2cc3c(N4CCOCC4)nc(-c4cnc(NC(=O)OC)cc4C(F)(F)F)nn3c2)CC1.O=P(O)(O)O [Form A* of Compound I phosphate salt] | (1.8) |
| C=CC(=O)NCC(=O)N1CCN(Cc2cc3c(N4CCOCC4)nc(-c4cnc(NC(=O)OC)cc4C(F)(F)F)nn3c2)CC1 [Form A of Compound I] | (1.9) |
